Below is a list of entries, each paired with its recorded growth inhibition value.
Assay: NCI Yeast Anticancer Drug Screen. Data for the bub3 strain (AID 167)
Conditions: S. cerevisiae bub3 mutant strain, at 50.0 µM, active compounds read high
The panel holds about 79,000 compounds, 15% with a hit somewhere; the sample as a whole holds those more often. Calls of active or inactive are those of the source. No stated cut-off is given here; in the data, active means growth inhibition above about 70%; inactive means the rest.

Check out these entries, answers already filled in.
- molecule: "CS(=O)(=O)C(CCC(=O)c1cccs1)C(=O)c1ccccc1 (stereo unspecified)"
  growth inhibition: "0.2% (inactive)"
- molecule: "CN(C)C(=O)Sc1ccc(N(C)C)cc1"
  growth inhibition: "15.1% (inactive)"
- molecule: "CC(=O)OC1C=CC(OC(C)=O)C2C1[C@H]1C3C=CC=CC3[C@@H]2S1=O (stereo partly specified)"
  growth inhibition: "6.25% (inactive)"

Name the recorded growth inhibition of the item `Cc1nc2ccc(Cl)cc2c2c1CCS2` in your answer. -23.1% (inactive)

Could you please provide reported growth inhibition for CC(O)CNCc1ccc(N(C)C)cc1 (stereo unspecified) ? Thanks! -4.65% (inactive)

For the molecule CN(C)CC1CCCCCCCCCC(CN(C)C)C1=O (stereo unspecified) , report growth inhibition. -21.4% (inactive)

* * *

Test: NCI Yeast Anticancer Drug Screen. Data for the rad50 strain (AID 155);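 further: 0% = growth of vehicle-only cultures of the same strain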
Details: S. cerevisiae rad50 strain growth inhibition; at 50.0 µM; active compounds read high
The panel holds about 79,000 compounds, 15% with a hit somewhere; the sample as a whole holds those more often.
measuredMetric: growth inhibition (%)
Give your result in % as a bare value.

Examples from the recorded data:
- chemicalSmiles: "COc1cc(/C=N\\NS(=O)(=O)c2ccc(N)cc2)ccc1O"
  growth inhibition / %: 10.1
- chemicalSmiles: "Brc1cc2c(cc1C1SCCS1)OCO2"
  growth inhibition / %: 49.5
- chemicalSmiles: "COC(=O)C12CC3CC(CC(C(=O)O)(C3)C1)C2"
  growth inhibition / %: -10.2
- chemicalSmiles: "CC(C)Cn1cnc2c(Sc3c([N+](=O)[O-])ncn3C)nc(N)nc21"
  growth inhibition / %: 7.95

Given `CN(C)S(=O)(=O)C1(c2ccccc2)CCCC1` , respond with its growth inhibition. 15.1

* * *

Assay: NCI Yeast Anticancer Drug Screen. Data for the rad50 strain (AID 155);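 further: 0% = growth of vehicle-only cultures of the same strain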
Details: S. cerevisiae rad50 strain growth inhibition; at 50.0 µM; active compounds read high
The panel holds about 79,000 compounds, 15% with a hit somewhere; the sample as a whole holds those more often.
Catalogue of compounds with associated growth inhibition
Supply the numeric figure in %, leaving out any unit text.

- compound: "C1=CCC(C(Nc2nncs2)Nc2nncs2)CC1 (stereo not drawn)"
  unitName: "%"
  growth inhibition: 6.25
- compound: "O=[N+]([O-])c1ccccc1Sc1ccc2c3c(cccc13)CN(CCCO)C2"
  unitName: "%"
  growth inhibition: 66.3
- compound: "FC(F)(F)c1cccc(NC(=S)Nc2ccccc2S)c1"
  unitName: "%"
  growth inhibition: 24
- compound: "N#CC1(Cc2ccccc2)c2ccccc2-c2ccccc21"
  unitName: "%"
  growth inhibition: 34.2
- compound: "CCN(CC)CCCC(C)NC1CCCc2cc3c(cc21)C(=O)c1ccccc1C3=O (stereo not drawn)"
  unitName: "%"
  growth inhibition: 34

Please report growth inhibition for the following compound: `CN(C)C(=O)Sc1ccc(O)cc1` 5.05

Item `CN(Cc1ccccc1)C(=O)NC1CCCCC1` : provide growth inhibition 2.3

Quote growth inhibition reported for `COc1ccc(C(=O)O)cc1` please. 12.3

Specify measured growth inhibition for `O=C1C[C@@H]2CCCC[C@@H]2C12SCCS2` . -10.9

Given the compound `CSC(N)=Nc1c(C)cccc1C` , write its reported growth inhibition. 3.55

Please give the documented growth inhibition of `CCCCOC(=O)COc1ccc(OC)cc1` -4.5

Hello, please tell me recorded growth inhibition for this one: `CCOC(=O)CCCN` -8.45

Give growth inhibition for NC(Cc1ccc(F)cc1)(C(=O)O)c1ccccc1 (stereo not drawn) 5.2

Identify growth inhibition associated with the compound CCC1SCC(=O)N1c1nncs1 (stereo not drawn) 4.75

Identify growth inhibition associated with the compound `CC(=O)O[C@H]1C[C@H]2[C@@H](OC(C)=O)/C=C3\C[C@](C)(C(=O)[C@H](O)C(=C1C)C2(C)C)[C@@H](O)C[C@@H]3OC(=O)[C@H](O)[C@H](c1ccccc1)N(C)C` 7.3

Assign growth inhibition to the following record: CC1(c2ccccc2)CC(c2cccc([N+](=O)[O-])c2)=NO1 (stereo not drawn) 27.4

Please report growth inhibition for the following compound: `O=Cc1cc2c(cc1-c1c(C=O)ccc3c1OCO3)OCO2` 58.2

Please look at this compound and report its growth inhibition: `CC(C)C(O)(C(=O)O)C(C)C` 11.1

Respond only with growth inhibition recorded for `O=C(C1=Cc2ccccc2OC1)N1CCN(c2ccccc2Cl)CC1` 12.3

* * *

Test: NCI Yeast Anticancer Drug Screen. Data for the mec2-1 strain (AID 157)
Details: S. cerevisiae mec2-1 strain, at 50.0 µM, active compounds read high
This is part of a sample that, as a whole, favours compounds with a hit. Of some 79,000 tested, about 15% had one in any assay.
measuredMetric: growth inhibition (%)
A number alone suffices; assume %.

Example compounds with recorded growth inhibition:
- compound: "O=S=Nc1ccc([N+](=O)[O-])cc1Cl"
  measuredMetric: "growth inhibition"
  reportedValue: -1.15
- compound: "CC(=O)N(C(=O)CC(=O)N1N=C(C)C(N=Nc2cccc([N+](=O)[O-])c2)C1=O)c1ccc(Cl)cc1 (stereo not given)"
  measuredMetric: "growth inhibition"
  reportedValue: -4.5
- compound: "ClCC1CCCO1 (stereo not given)"
  measuredMetric: "growth inhibition"
  reportedValue: 12.6
- compound: "NNC(=O)c1ccccc1F"
  measuredMetric: "growth inhibition"
  reportedValue: -19.4

Identify measured growth inhibition associated with `CCOC(=O)/C(=C\c1cc(C)c(OC(C)=O)c(OC)c1)NC(=O)c1ccccc1` -15.2

* * *

Listed compounds paired with reported growth inhibition
Assay: NCI Yeast Anticancer Drug Screen. Data for the cln2 rad14 strain (AID 165);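 further: 0% = growth equal to vehicle treated cultures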
Conditions: S. cerevisiae cln2 rad14 strain, at 50.0 µM, active compounds read high
Compounds without any hit were thinned out: in the full panel of roughly 79,000, 15% have a hit.
// note: answer is a bare numeric in %

Please give measured growth inhibition of the following entry: `CCc1ccc(OC(C)=O)cc1` -21.7

Find the measured growth inhibition of `NC(=S)N/N=C(/CC(=O)c1ccc([N+](=O)[O-])cc1)C(=O)Nc1ncc([N+](=O)[O-])s1` and report it. 19.2

Name the recorded growth inhibition of the compound listed here: NC(=O)C12OC1(Cl)CCCC2(Cl)Cl (stereo unspecified) 9.05

Using known records, supply growth inhibition for COC(=O)CCNC(C(=O)O)C(C)(C)SCCC(=O)OC (stereo unspecified) 24.5

Please indicate growth inhibition recorded for `Nc1cc(Cl)cc2[nH]c(=O)c3cc(Cl)ccc3c12` 5.35

* * *

Test: NCI Yeast Anticancer Drug Screen. Data for the cln2 rad14 strain (AID 165);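 further: 0% = growth equal to vehicle treated cultures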
Conditions: S. cerevisiae cln2 rad14 strain, at 50.0 µM, active compounds read high
About 79,000 compounds went through this panel and 15% of them were active in at least one assay; those are over-represented in the sample as a whole.
measuredMetric: growth inhibition (%)
State the answer as a number, implicitly in %.

Field: example entries. Status: answers known.
- compound: "CCC(=O)NCCO"
  measuredMetric: "growth inhibition"
  reportedValue: -103
- compound: "CCOC(=O)CCC(NC(=O)c1ccc(Nc2cnc3ccc(C(F)(F)F)cc3n2)cc1)C(=O)OCC (configuration not stated)"
  measuredMetric: "growth inhibition"
  reportedValue: 14.1
- compound: "O=C(O)C(=O)O.[Co+3].[NH-]C(Cc1ccccc1)C(=O)[O-].[NH-]CCN(CC[NH-])CC[NH-] (configuration not stated)"
  measuredMetric: "growth inhibition"
  reportedValue: 22.6
- compound: "CCOC(=O)CN=C1NNS(=O)(=O)c2ccccc21"
  measuredMetric: "growth inhibition"
  reportedValue: 28.4
- compound: "CC(=O)O[C@H]1CC[C@]2(C)C3CC[C@]4(C)C([C@H](C)CCCC(C)C)CCC4[C@]3(/C=N/O)n3c(=O)n(-c4ccccc4)c(=O)n3[C@]2(/C=N\\O)C1 (some centres not stated)"
  measuredMetric: "growth inhibition"
  reportedValue: 9.7

Item `N#C/C(N)=C(/C#N)N=Cc1ccccc1` : provide growth inhibition -64.4

Let me know recorded growth inhibition for `CCn1ncc2ccc(N(CO)CO)cc21` , thanks. -20.2

* * *

Assay: NCI Yeast Anticancer Drug Screen. Data for the mlh1 rad18 strain (AID 175)
Conditions: S. cerevisiae mlh1 rad18 strain growth inhibition; at 50.0 µM; active compounds read high
The panel holds about 79,000 compounds, 15% with a hit somewhere; the sample as a whole holds those more often. Active and inactive are the calls of the source. Cut-off read from the data, not from the text of the source: active = growth inhibition above about 70%; inactive = the rest.
We begin with a simple list: items and their reported growth inhibition.

Output measured growth inhibition for this item: `O=C(N/N=C/c1ccc(O)cc1)c1ccccc1NC(=O)C1CC1` -21.1% (inactive)

Consider the compound `N#C/C(N)=C(/C#N)N=Cc1ccccc1` and give its recorded growth inhibition. 18.9% (inactive)

Look up growth inhibition of `COc1ccc(F)cc1N` and report it. -18.7% (inactive)

Quote growth inhibition reported for `CC(=O)Nc1ccc(S(=O)(=O)O)c(C(F)(F)F)c1` please. 11.4% (inactive)

Please look at this compound and report its growth inhibition: `CC1(C)CC(=O)C=C(NCCCCCCCCNC2=CC(=O)CC(C)(C)C2)C1` 9.8% (inactive)

Item `CCOC(=O)c1cnc2c(cnn2C(C)C)c1NN` : provide growth inhibition -15.4% (inactive)

Source listed as PubChem BioAssay (NCI).
